B1: NEK8 (parent)
chain: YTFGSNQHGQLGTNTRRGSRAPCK

- Variants of: B1
- Assay info: protein stability index of a GFP-peptide fusion (GPS, HEK-293T) (PSI 1-6); higher = more stable;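 further: lentivirally expressed fusions sorted by FACS into six bins by GFP to DsRed ratio, PSI derived from sequencing read proportions per bin multiplied by bin number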
- Conditions used: c terminus: a fixed tail appended
Param threshold (4) applies to protein stability index; output satisfied when value >= threshold, not satisfied when value < threshold.

Var	Assigned category
T13S	satisfied
N6M	not satisfied
R16F	not satisfied
R17C	not satisfied
A21P	not satisfied
T15G	not satisfied
G12M	not satisfied
C23Q	satisfied
G4W	not satisfied
A21F	not satisfied
R20P	not satisfied
G12D	satisfied
L11G	satisfied
T2I	not satisfied
G12F	not satisfied
N14T	not satisfied
R16W	not satisfied
T13Y	not satisfied
P22D	satisfied
C23V	satisfied
G4E	satisfied
G18M	not satisfied
G4C	not satisfied
Y1R	satisfied
T15P	not satisfied
N14P	not satisfied
S5D	satisfied
R20W	not satisfied
S5C	not satisfied
G4P	satisfied
Y1N	satisfied
G18A	not satisfied
A21Y	not satisfied
T15I	satisfied
R16I	not satisfied
N14A	not satisfied
R20F	not satisfied
N14Q	not satisfied
G12W	not satisfied
Q7V	not satisfied
S19D	satisfied

Source: the supplement of paper PMC10567573
